Target: human P2X3 receptor (Homo sapiens, UniProt P56373)
Sequence (P56373 1-397): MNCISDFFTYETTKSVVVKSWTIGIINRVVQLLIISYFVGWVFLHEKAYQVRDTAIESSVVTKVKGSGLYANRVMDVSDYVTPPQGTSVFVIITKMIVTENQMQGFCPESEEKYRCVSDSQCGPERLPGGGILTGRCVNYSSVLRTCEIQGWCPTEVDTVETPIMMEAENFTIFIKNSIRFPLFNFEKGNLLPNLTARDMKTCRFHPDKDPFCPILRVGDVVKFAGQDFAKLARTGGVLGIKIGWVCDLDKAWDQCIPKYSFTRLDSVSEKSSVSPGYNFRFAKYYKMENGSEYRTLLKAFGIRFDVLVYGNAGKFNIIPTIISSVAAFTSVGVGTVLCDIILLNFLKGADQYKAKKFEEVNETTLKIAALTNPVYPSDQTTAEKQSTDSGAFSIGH
Assay: Intracellular calcium measurement, antagonist activity at human P2X3 receptors (hP2X3 1321N1), Fluo8
Type: cell-based
Set-up: expressed in transfected cells; host or cells: human astrocytoma 1321N1 (1312N1 [sic])
Settings: column 3); 1321N1 cells, human P2X3, Fluo8, agonist ATP at EC50
Entries whose IC50 is below 60 nM take MET; entries at or above 60 nM take NOT MET.

Exam item: Lab note: confirm whether the reported IC50 for this compound is below 60 nM, equality not counting. compound: CC(C)N1Cc2c(n(CC(=O)Nc3ccc(F)cn3)c3cc(C4CCOCC4)nn3c2=O)C1=O [Example 58]
Marked response: MET

Exam item: Lab note: confirm whether the reported IC50 for this compound is below 60 nM, equality not counting. compound: CCc1cc2n(CC(=O)Nc3ccc(F)cn3)c3c(c(=O)n2n1)CN(CCNC(=O)OC(C)(C)C)C3=O [Example 68]
Marked response: MET

Exam item: Lab note: confirm whether the reported IC50 for this compound is below 60 nM, equality not counting. compound: CC(C)N1Cc2c(n(CC(=O)Nc3ccc(F)cn3)c3cc(C4CCCCC4)nn3c2=O)C1=O [Example 85]
Marked response: MET

Exam item: Lab note: confirm whether the reported IC50 for this compound is below 60 nM, equality not counting. compound: Cc1ccc(NC(=O)Cn2c3c(c(=O)n4nc(C(C)(C)C)cc24)CN([C@@H](C)C(C)C)C3=O)nc1 [Example 11]
Marked response: NOT MET

Exam item: Lab note: confirm whether the reported IC50 for this compound is below 60 nM, equality not counting. compound: O=C(Cn1c2c(c(=O)n3nc(C4CCOCC4)cc13)CN(C1CCCC1)C2=O)Nc1ccc(F)cn1 [Example 92]
Marked response: MET

Exam item: Lab note: confirm whether the reported IC50 for this compound is below 60 nM, equality not counting. compound: CC(C)N1Cc2c(n(CC(=O)Nc3ccc(F)cn3)c3cc(N4CCOCC4)nn3c2=O)C1=O [Example 180]
Marked response: NOT MET

Exam item: Lab note: confirm whether the reported IC50 for this compound is below 60 nM, equality not counting. compound: CCc1cc2n(CC(=O)Nc3ccc(F)cn3)c3c(c(=O)n2n1)CN(C[C@H]1CCCO1)C3=O [Example 73]
Marked response: NOT MET

Exam item: Lab note: confirm whether the reported IC50 for this compound is below 60 nM, equality not counting. compound: CC(C)(C)c1cc2n(CC(=O)Nc3ccc(Cl)cn3)c3c(c(=O)n2n1)CN(C1CCC1)C3=O [Example 18]
Marked response: NOT MET

Exam item: Lab note: confirm whether the reported IC50 for this compound is below 60 nM, equality not counting. compound: COC[C@H](C)N1Cc2c(n(CC(=O)Nc3ccc(F)cn3)c3cc(C4CCC4)nn3c2=O)C1=O [Example 110]
Marked response: MET

Exam item: Lab note: confirm whether the reported IC50 for this compound is below 60 nM, equality not counting. compound: CCc1cc2n(CC(=O)Nc3ccc(F)cn3)c3c(c(=O)n2n1)CN(C[C@H]1CN(CCC(F)(F)F)CCO1)C3=O [Example 259]
Marked response: NOT MET

Exam item: Lab note: confirm whether the reported IC50 for this compound is below 60 nM, equality not counting. compound: CC(C)(C)c1cc2n(CC(=O)Nc3ccc(F)cn3)c3c(c(=O)n2n1)CN(CC(=O)N1CCCC1)C3=O [Example 38]
Marked response: NOT MET

Exam item: Lab note: confirm whether the reported IC50 for this compound is below 60 nM, equality not counting. compound: CC(C)N1Cc2c(n(CC(=O)Nc3ccc(F)cn3)c3cc(C(=O)Nc4ccccc4F)nn3c2=O)C1=O [Example 200]
Marked response: MET

Exam item: Lab note: confirm whether the reported IC50 for this compound is below 60 nM, equality not counting. compound: CC(C)(C)c1cc2n(CC(=O)Nc3ccc(F)cn3)c3c(c(=O)n2n1)CN(CCO)C3=O [Example 135]
Marked response: NOT MET

Exam item: Lab note: confirm whether the reported IC50 for this compound is below 60 nM, equality not counting. compound: CCc1cc2n(CC(=O)Nc3ccc(F)cn3)c3c(c(=O)n2n1)CN(C1CCN(C)C1)C3=O (centres unmarked) [Example 253]
Marked response: NOT MET

Exam item: Lab note: confirm whether the reported IC50 for this compound is below 60 nM, equality not counting. compound: CCc1cc2n(CC(=O)Nc3ccc(F)cn3)c3c(c(=O)n2n1)CN(C1CCN(C(C)=O)C1)C3=O (centres unmarked) [Example 265]
Marked response: NOT MET

Exam item: Lab note: confirm whether the reported IC50 for this compound is below 60 nM, equality not counting. compound: COC[C@@H](C)N1Cc2c(n(CC(=O)Nc3ccc(F)cn3)c3cc(C)nn3c2=O)C1=O [Example 52]
Marked response: NOT MET

Exam item: Lab note: confirm whether the reported IC50 for this compound is below 60 nM, equality not counting. compound: CCc1cc2n(CC(=O)Nc3ccc(F)cn3)c3c(c(=O)n2n1)CN(CC1CCNCC1)C3=O.Cl [Example 240]
Marked response: NOT MET

Exam item: Lab note: confirm whether the reported IC50 for this compound is below 60 nM, equality not counting. compound: CC(C)N1Cc2c(n(CC(=O)Nc3ccc(F)cn3)c3cc(C4CCN(C5CCC5)CC4)nn3c2=O)C1=O [Example 252]
Marked response: NOT MET

Exam item: Lab note: confirm whether the reported IC50 for this compound is below 60 nM, equality not counting. compound: CC(C)N1Cc2c(n(CC(=O)Nc3ccc(F)cn3)c3ccnn3c2=O)C1=O [Example 45]
Marked response: NOT MET

###

Assign log10 IC50 to each entry below.
Target: human P2X3 receptor (Homo sapiens, UniProt P56373)
Assay: Intracellular calcium measurement, antagonist activity at human P2X3 receptors (hP2X3 1321N1), Fluo8
Format: cell-based
Parameters: expressed in transfected cells; host or cells: human astrocytoma 1321N1 (1312N1 [sic])
Conditions: column 3); 1321N1 cells, human P2X3, Fluo8, agonist ATP at EC50
Each number you see is log10 of IC50, and the unit inside the log is nM.

Exam item: Entry under review: COC[C@H](C)N1Cc2c(n(CC(=O)Nc3ccc(F)cn3)c3cc(C(=O)NCC4CC4)nn3c2=O)C1=O . Reported log10 IC50?
Marked response: 1.20

Exam item: Entry under review: CCNc1cc2n(CC(=O)Nc3ccc(F)cn3)c3c(c(=O)n2n1)CN(C(C)C)C3=O . Reported log10 IC50?
Marked response: 2.02

Exam item: Entry under review: CC(C)N1Cc2c(n(CC(=O)Nc3ccc(F)cn3)c3cc(C#N)nn3c2=O)C1=O . Reported log10 IC50?
Marked response: 2.09

Exam item: Entry under review: COC[C@H](C)N1Cc2c(n(CC(=O)Nc3ccc(F)cn3)c3cc(C4CCOCC4)nn3c2=O)C1=O . Reported log10 IC50?
Marked response: 1.49

Exam item: Entry under review: CCc1cc2n(CC(=O)Nc3ccc(F)cn3)c3c(c(=O)n2n1)CN(C[C@H]1CNCCO1)C3=O . Reported log10 IC50?
Marked response: 2.97

Exam item: Entry under review: CC(C)N1Cc2c(n(CC(=O)Nc3ccc(F)cn3)c3cc(C4CCOC4)nn3c2=O)C1=O (racemic) . Reported log10 IC50?
Marked response: 1.30

Exam item: Entry under review: COC[C@@H](C)N1Cc2c(n(CC(=O)Nc3ccc(F)cn3)c3cc(C(C)(C)C)nn3c2=O)C1=O . Reported log10 IC50?
Marked response: 1.49

Exam item: Entry under review: CC(C)(C)c1cc2n(CC(=O)Nc3ccc(F)cn3)c3c(c(=O)n2n1)CN(CCN1CCOCC1)C3=O . Reported log10 IC50?
Marked response: 1.93

Exam item: Entry under review: CC(C)N1Cc2c(n(CC(=O)Nc3ccc(F)cn3)c3cc(C(=O)N4CCN(C)CC4)nn3c2=O)C1=O . Reported log10 IC50?
Marked response: 2.08

Exam item: Entry under review: CC(C)(C)c1cc2n(CC(=O)Nc3ccc(Cl)cn3)c3c(c(=O)n2n1)CN(C1COC1)C3=O . Reported log10 IC50?
Marked response: 2.42

Exam item: Entry under review: CC(C)N1Cc2c(n(CC(=O)Nc3ccc(F)cn3)c3cc(C(=O)NC4CCCC4)nn3c2=O)C1=O . Reported log10 IC50?
Marked response: 1.60

Exam item: Entry under review: CCc1cc2n(CC(=O)Nc3ccc(F)cn3)c3c(c(=O)n2n1)CN(CC1CCOCC1)C3=O . Reported log10 IC50?
Marked response: 2.82

Exam item: Entry under review: CC(C)N1Cc2c(n(CC(=O)Nc3ccc(F)cn3)c3cc(C(=O)N4CCC4)nn3c2=O)C1=O . Reported log10 IC50?
Marked response: 1.75

Exam item: Entry under review: COC[C@H](C)N1Cc2c(n(CC(=O)Nc3ccc(F)cn3)c3cc(C(=O)NC4CC4)nn3c2=O)C1=O . Reported log10 IC50?
Marked response: 1.57

Exam item: Entry under review: CC(C)N1Cc2c(n(CC(=O)Nc3ccc(F)cn3)c3cc(NCC4CC4)nn3c2=O)C1=O . Reported log10 IC50?
Marked response: 1.57
